tested_target: human MC3R (human, UniProt P41968 1-323)
Sequence (P41968 whole entry): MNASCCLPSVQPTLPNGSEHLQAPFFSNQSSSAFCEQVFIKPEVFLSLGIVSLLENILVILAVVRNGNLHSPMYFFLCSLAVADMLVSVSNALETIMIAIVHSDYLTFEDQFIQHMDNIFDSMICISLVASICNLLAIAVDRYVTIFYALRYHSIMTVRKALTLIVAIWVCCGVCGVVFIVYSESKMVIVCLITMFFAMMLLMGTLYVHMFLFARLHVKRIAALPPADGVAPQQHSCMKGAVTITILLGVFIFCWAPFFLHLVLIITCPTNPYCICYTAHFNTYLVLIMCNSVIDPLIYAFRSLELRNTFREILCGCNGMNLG
experiment_notes: cell-based or functional assay
Non-standard residues stand in square brackets, D forms with d. Phe(4-I) = N[C@@H](Cc1ccc(I)cc1)C(=O)O; Nle = CCCC[C@H](N)C(=O)O; dAbu = CC[C@@H](N)C(=O)O
measured_metric: MC3R cAMP (EC50) (nM)
Respond with the bare value in nM.

Reference set, count: 2
| binder | MC3R cAMP (EC50), nM |
| --- | --- |
| Ac-[Nle][dA]HFR[dW][dF]RFG-OH (SMILES CCCC[C@H](NC(C)=O)C(=O)N[C@H](C)C(=O)N[C@@H](Cc1c[nH]cn1)C(=O)N[C@@H](Cc1ccccc1)C(=O)N[C@@H](CCCNC(=N)N)C(=O)N[C@H](Cc1c[nH]c2ccccc12)C(=O)N[C@H](Cc1ccccc1)C(=O)N[C@@H](CCCNC(=N)N)C(=O)N[C@@H](Cc1ccccc1)C(=O)NCC(=O)O) [CTX-1530] | 289 |
| YVXAHFRWDRFG (NMe-Tyr at 1; Nle at 3; D-Ala at 4; D-Trp at 8) [CTX-1124] | 1.7 |

Turning to the following binder.
Query string: Quick one: MC3R cAMP (EC50) of Ac-YVE[dAbu]H[Phe(4-I)]R[dW]DRFG-OH (SMILES CC[C@@H](NC(=O)[C@H](CCC(=O)O)NC(=O)[C@@H](NC(=O)[C@H](Cc1ccc(O)cc1)NC(C)=O)C(C)C)C(=O)N[C@@H](Cc1c[nH]cn1)C(=O)N[C@@H](Cc1ccc(I)cc1)C(=O)N[C@@H](CCCNC(=N)N)C(=O)N[C@H](Cc1c[nH]c2ccccc12)C(=O)N[C@@H](CC(=O)O)C(=O)N[C@@H](CCCNC(=N)N)C(=O)N[C@@H](Cc1ccccc1)C(=O)NCC(=O)O) [CTX-1194] ?
Result string: 34.3
